System: MAPKAPK2
Test: Inhibition of MAPKAPK2 in GFP-MAPKAPk2_BHK cell model (nuclear translocation)
Format: cell-based
Conditions: GFP-MAPKAPk2_BHK cells; bound given in µM
Give measured IC50 for each item. Keep answers brief.

Molecule: Cc1ccc(-n2nc(C(C)(C)C)cc2NC(=O)Nc2ccccc2OCCN2CCOCC2)cc1 [28a]
IC50: > 10 µM
--
Molecule: CC(C)(C)c1cc(NC(=O)NCc2ccccc2OCCN2CCOCC2)n(-c2ccccc2)n1 [30d]
IC50: > 3 µM
--
Molecule: Cc1ccc(-n2nc(C(C)(C)C)cc2NC(=O)Nc2ccccc2Oc2ccc3[nH]ncc3c2)cc1 [29a]
IC50: > 10 µM

Shift focus to the following entry.
Input line: Could you tell me which IC50 is on file for CC(C)(C)c1cc(NC(=O)Nc2ccccc2OCCN2CCOCC2)n(-c2ccc(Br)cc2)n1 [28f] ?
Output line: > 10 µM
